Assay: NCI Yeast Anticancer Drug Screen. Data for the mlh1 rad18 strain (AID 175)
Details: S. cerevisiae mlh1 rad18 strain growth inhibition; at 5.0 µM (retest, dose inferred, filed as 0.5); active compounds read high
About 79,000 compounds went through this panel and 15% of them were active in at least one assay; those are over-represented in the sample as a whole.
Measurement Type: growth inhibition (%)
Your answer should be a plain number; it is taken to be in %.

INSERT INTO measurements (molecule, observed_value) VALUES
  ('O=C1CSC(c2cccc([N+](=O)[O-])c2)N1c1ccc(-c2ccc(-n3c(-c4ccccc4)nc4ccccc4c3=O)cc2)cc1 (stereo not given)', 9),
  ('CC(C)(C)c1ccc(O)c(C2CCCCC2)c1', -1),
  ('Cc1cc(Br)c(N2C3=C(CC4=C2CCCC4=O)C(=O)CCC3)c(Br)c1', 16),
  ('O=C(O)c1cc2cc3ccccc3cc2cc1O', -1),
  ('CN(C)c1nc(NNS(=O)(=O)c2ccc(N)cc2)nc(N(C)C)n1', -1);

Reported growth inhibition for CN(C)CC1Cc2ccsc2C1=O (stereo not given) was 0

Reported growth inhibition for O=S(=O)(O)c1ccc(O)c2cc(Nc3ccccc3)ccc12 was 3

Reported growth inhibition for NC(CCCNc1nc(O)cc(=O)[nH]1)C(=O)O (stereo not given) was -127

Reported growth inhibition for NC1CCCCC1N.O=S(=O)([O-])CCCN1CCN(CCO)CC1.O=S(=O)([O-])CCCN1CCN(CCO)CC1.[Pt+4] was 16

Reported growth inhibition for O=C(NC(=S)Nc1ncc([N+](=O)[O-])s1)c1ccccc1C(=O)NC(=S)Nc1ncc([N+](=O)[O-])s1 was 4

Values from PubChem BioAssay (NCI)
